System name: HIV-1 Rev (Human immunodeficiency virus 1, UniProt P04618 P04618:1-116)
Sequence (P04618 whole entry, one chain of several): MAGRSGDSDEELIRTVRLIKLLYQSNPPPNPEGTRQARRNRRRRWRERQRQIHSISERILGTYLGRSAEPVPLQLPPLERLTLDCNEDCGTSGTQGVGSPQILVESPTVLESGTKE
Measurement notes: monophasic; crosslinks with and without laser, also at 50 nM Rev in human nuclear extract (FIG. 20)
Condition summary: hairpin
Experimental: To test for the ability of trunc24 (SEQ ID NO:59) to discriminate HIV-1 Rev in a complex mixture, trunc24 and 10 µg of human fibroblast nuclear extract together with decreasing amounts of HIV-1 Rev (FIG. 20). At 50 nM Rev and a 1:100 weight ratio of Rev to nuclear extract, it was possible to see a very significant crosslinked product between trunc24 and Rev.
Experimental endpoint: Kd (nM)
Numbers only, in nM.

Task item: State its Kd for this binder: GGGGAUUAACAGGCACACCUGUUAACCCU (ssRNA, 5-iodouracil in place of all U) [trunc24]
Reply: 20
